Tested on: Mycobacterium avium
Assay: Antimycobacterial activity against Mycobacterium avium ATCC 25291 at 100 uM by microplate alamar blue assay
Type: functional
measured.property: inhibition at 100 µM (%)
Respond numerically; units are % and should not be typed.

Before answering, review these 3 worked examples.
{"columns": ["molecule", "units.symbol", "inhibition at 100 µM"],
 "data": [
  ["Cc1cn([C@H]2CC[C@@H](CO)O2)c(=O)nc1N", "%", 0],
  ["Nc1nc(O)c2ncn([C@H]3CC[C@@H](CO)O3)c2n1", "%", 0],
  ["Nc1nc(=O)n([C@H]2CC[C@@H](CO)O2)cc1I", "%", 0]
]}

For record Nc1nc(F)c2ccn([C@H]3CC[C@@H](CO)O3)c2n1 the listed inhibition at 100 µM is 100

For record CCCc1ccc(C#Cc2cn([C@H]3C[C@H](F)[C@@H](CO)O3)c(=O)[nH]c2=O)cc1 the listed inhibition at 100 µM is 25

For record CC(=O)OC[C@@H]1CC[C@H](n2cc(Cl)c(=O)[nH]c2=O)O1 the listed inhibition at 100 µM is 0

For record Nc1nc(=O)n([C@H]2CC[C@@H](CO)O2)cc1Br the listed inhibition at 100 µM is 0

For record CC(=O)OC[C@@H]1CC[C@H](n2ccc(=O)[nH]c2=O)O1 the listed inhibition at 100 µM is 0

For record COc1nc(N)nc2c1ncn2[C@H]1CC[C@@H](CO)O1 [METACAVIR] the listed inhibition at 100 µM is 20

For record CCCCCCCCCCC#Cc1cn([C@H]2C[C@H](F)[C@@H](CO)O2)c(=O)[nH]c1=O the listed inhibition at 100 µM is 90

For record Nc1ncnc2c1ncn2[C@H]1CC[C@@H](CO)O1 the listed inhibition at 100 µM is 0

Data provenance is ChEMBL document CHEMBL1148772.
